biological target: D2LR (Homo sapiens); experiment: inhibition of forskolin-stimulated cAMP production, BRET biosensor; assay type: cell-based
Result type: LogτA
// print number alone

Please look at this molecule and report its LogτA: CN1CCc2cccc3c2[C@H]1Cc1ccc(O)c(O)c1-3 [apomorphine, reference compound]
0.93

Please look at this molecule and report its LogτA: CCCN[C@H]1CCc2nc(N)sc2C1 [pramipexole, reference compound]
1.05

Please look at this molecule and report its LogτA: CC(C)C[C@H]1C(=O)N2CCC[C@H]2[C@]2(O)O[C@](NC(=O)[C@@H]3C=C4c5cccc6[nH]c(Br)c(c56)C[C@H]4N(C)C3)(C(C)C)C(=O)N12 [bromocriptine, reference compound]
0.66

Please look at this molecule and report its LogτA: CCCN(CCc1cccs1)[C@H]1CCc2c(O)cccc2C1 [rotigotine, reference compound]
1.17

---

target: D2LR (Homo sapiens, UniProt P14416); test: inhibition of forskolin-stimulated cAMP production, BRET biosensor; assay type: cell-based;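 also: Flp-In-CHO cells stably expressing CAMYEL cAMP BRET sensor, agonist plus 10 µM forskolin, net BRET after forskolin-vehicle subtraction, parameters from complete operational model of allosterism and agonism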
Sequence (P14416 whole entry): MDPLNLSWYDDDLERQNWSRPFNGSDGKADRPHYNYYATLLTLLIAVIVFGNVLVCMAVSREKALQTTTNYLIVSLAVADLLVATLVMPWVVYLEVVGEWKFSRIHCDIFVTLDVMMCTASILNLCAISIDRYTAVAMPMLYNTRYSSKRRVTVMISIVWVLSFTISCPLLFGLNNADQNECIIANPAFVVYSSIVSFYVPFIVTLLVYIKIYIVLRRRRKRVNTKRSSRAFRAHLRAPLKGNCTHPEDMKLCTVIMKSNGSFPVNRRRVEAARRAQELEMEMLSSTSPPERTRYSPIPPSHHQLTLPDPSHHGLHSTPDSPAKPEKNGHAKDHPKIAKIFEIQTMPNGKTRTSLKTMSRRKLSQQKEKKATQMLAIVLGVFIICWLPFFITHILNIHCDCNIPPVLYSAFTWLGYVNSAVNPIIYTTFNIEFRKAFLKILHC
Result type: τA
// print number alone

Please look at this compound and report its τA: CCCN[C@H]1CCc2nc(N)sc2C1 [pramipexole, reference compound]
11.2

Please look at this compound and report its τA: CCCN(CCc1cccs1)[C@H]1CCc2c(O)cccc2C1 [rotigotine, reference compound]
14.8

Please look at this compound and report its τA: CN1CCc2cccc3c2[C@H]1Cc1ccc(O)c(O)c1-3 [apomorphine, reference compound]
8.5

Please look at this compound and report its τA: CC(C)C[C@H]1C(=O)N2CCC[C@H]2[C@]2(O)O[C@](NC(=O)[C@@H]3C=C4c5cccc6[nH]c(Br)c(c56)C[C@H]4N(C)C3)(C(C)C)C(=O)N12 [bromocriptine, reference compound]
4.6

These measurements were taken from paper PMC12186844.
